tested on: SN12C renal; experiment: NCI-60 one-dose screen, 48 h (100 = growth as untreated, 0 = no growth, -100 = all killed); settings: 10 µM unless noted
The panel holds about 83,000 compounds, 20% with a hit somewhere; the sample as a whole holds those more often.

COMPOUND	growth (%)
C#Cc1nc(/C=C/CCCCCCC(=O)NO)cs1	90.3
CNC(=O)c1cc(-c2ccc(NC(=S)Nc3cccc(C(F)(F)F)c3)cc2)nc2cccnc12	97.3
C#CCOc1cccc(-c2nc(N)nc(Nc3ccccc3SSc3ccccc3Nc3nc(N)nc(-c4cccc(OCC#C)c4)n3)n2)c1	1.17
O=C(Nc1ccc(Cl)c(C(F)(F)F)c1)Nc1ccc2c(ccn2C(=O)c2cccc(F)c2)c1	42.9
CC(C)(C)OC(=O)NCc1ccc(CNc2c([N+](=O)[O-])cnc3ccccc23)cc1	75.9
Fc1ccc2nc(-c3cnn4cccnc34)sc2c1	90.2
COc1ccc2c(c1)C=CC1(O2)Oc2ccc(OC)cc2C=C1C (centres undefined)	51.9
CN(C)CCNc1ccc2ncc(C#Cc3cncc(C(=O)Nc4ccc(CN5CCN(C)CC5)c(C(F)(F)F)c4)c3)n2n1	-9.94
CCN(CC)c1ccc(/C=N/NC(=O)c2ccc(S(N)(=O)=O)cc2)cc1	35.9
